Task for the reader: assign each of the following compounds its reported MIC.
Tested on: P. aeruginosa CDC-0054
Assay: microbe, parasite or virus in culture
Type: cell-based
Details: Pseudomonas aeruginosa, CDC0054, read-out: Minimum inhibitory concentration, P. aeruginosa CDC-0054

O=C(NCCN1CCN(C(=O)NC(C(=O)N[C@H]2Cc3ccc(F)c(C(=O)O)c3OB2O)c2cc(F)c(O)c(O)c2Cl)C1=O)c1nccs1 (some centres unmarked) | 2 to 4 µg/mL
O=C(O)c1c(F)ccc2c1OB(O)[C@@H](NC(=O)[C@H](NC(=O)N1CCN(Cc3ccc(O)c(O)c3Cl)C(=O)C1=O)c1cc(F)c(P(=O)(O)O)c(F)c1)C2 | < 1 µg/mL
O=C(NCCN1CCN(C(=O)NC(C(=O)N[C@H]2Cc3ccc(F)c(C(=O)O)c3OB2O)c2cc(F)c(O)c(O)c2Cl)C(=O)C1=O)c1nccs1 (some centres unmarked) | 8 to 16 µg/mL

Report MIC for every entry below.
1. O=C(O)c1c(F)ccc2c1OB(O)[C@@H](NC(=O)[C@@H](NC(=O)N1CCN(Cc3ccc(O)c(O)c3Cl)C(=O)C1=O)c1cccc(P(=O)(O)O)c1)C2 (single isomer, unassigned)
2. O=C(O)c1c(F)ccc2c1OB(O)[C@@H](NC(=O)[C@H](NC(=O)N1CCN(Cc3ccc(O)c(O)c3Cl)C(=O)C1=O)c1cccc(P(=O)(O)O)c1)C2 (single isomer, unassigned)

Reply text:
1: 2 to 4 µg/mL; 2: < 1 µg/mL
